experiment: Inhibitory concentration against Plasmodium falciparum
pIC50: −log10 of the molar value.
metricName: pIC50

# count of solved cases: 3
NC1=NCN(c2ccc(F)c(Cl)c2)C(N)=N1 ... 4.83
NC1=NCN(c2ccccn2)C(N)=N1 ... 3.20
NC1=NC(c2ccccc2)N(c2ccc(F)c(Cl)c2)C(N)=N1 (stereo unspecified) ... 4.09

a: CCc1nc(N)nc(N)c1-c1ccc(Cl)cc1 [PYRIMETHAMINE]
b: NC1=NC(c2ccccc2)N(c2ccccn2)C(N)=N1 (stereo unspecified)
c: Cc1ccc(N2CN=C(N)N=C2N)cc1
Rank items: key pIC50, increasing. List the labels according to the requested ordering.
c, b, a
(c: 3.30, b: 4.28, a: 8.30)
